# experiment-notes: pI of native glucagon and glucagon derivatives
# Assay type: physicochemical
Bridge positions count the residues as written; N and C are the ends. Square brackets hold non-standard residues; d marks the D form. Ends that are not written are not given here. Aib = CC(C)(N)C(=O)O
measurement-kind: pl
Give bare numbers.

Solved entries:
Reported pl, sequence YXQGTFTSDCSKYLDSRRAQDFVQWLMNT (Y[Aib]QGTFTSDCSKYLDSRRAQDFVQWLMNT) [SEQ ID NO: 43] : ____
6.03

Next: YXQGTFTSDYSKYLDCVRAQDFVQWLMRT (Y[Aib]QGTFTSDYSKYLDCVRAQDFVQWLMRT) [SEQ ID NO: 17]
6.03

Then this sequence: YXQGTFVSDCSKYLDERRAKDFVQWLMNT (Y[Aib]QGTFVSDCSKYLDERRAKDFVQWLMNT; lactam 16-20) [SEQ ID NO: 39]
6.15

---
Fill in the blank: the reported pl of YXQGTFCSDYSKYLDERRAKEFVQWLMNT (Y[Aib]QGTFCSDYSKYLDERRAKEFVQWLMNT; lactam 16-20) [SEQ ID NO: 38] is ____.
6.15
